Where do the numbers come from? From patent US7407982B2.

Biological target: human α-thrombin (Homo sapiens, UniProt P00734)
Construct: 50 μl human α-thrombin (Kordia); purchased Kordia
Assay: Determination of Ki for thrombin inhibition (chromogenic or fluorogenic substrate, Dixon)
Assay type: biochemical
Conditions: Table I, selectivity quotient
Classify: 1.0 when Ki Trypsin/Ki Thrombin is strictly less than 0.7; 0.0 when Ki Trypsin/Ki Thrombin is not.

smiles_record=N=C(N)c1ccc(CNC(=O)[C@@H]2CCCN2C(=O)CNS(=O)(=O)c2cccc(Cl)c2Cl)cc1 target_or_system="human α-thrombin (Homo sapiens, UniProt P00734)" class=0.0
smiles_record=Cc1cc(Cl)cc(Cl)c1S(=O)(=O)NCC(=O)N1CCC[C@H]1C(=O)NCc1ccc(C(=N)N)cc1 target_or_system="human α-thrombin (Homo sapiens, UniProt P00734)" class=0.0
smiles_record=N=C(N)c1ccc(CNC(=O)[C@@H]2CCCN2C(=O)CNS(=O)(=O)/C=C/c2ccccc2)cc1 target_or_system="human α-thrombin (Homo sapiens, UniProt P00734)" class=1.0
smiles_record=COc1ccc(S(=O)(=O)NCC(=O)N2CCC[C@H]2C(=O)NCc2ccc(C(=N)N)cc2)cc1 target_or_system="human α-thrombin (Homo sapiens, UniProt P00734)" class=0.0
smiles_record=N=C(N)c1ccc(CNC(=O)[C@@H]2CCCN2C(=O)CNS(=O)(=O)CCc2ccccc2)cc1 target_or_system="human α-thrombin (Homo sapiens, UniProt P00734)" class=1.0
smiles_record=N=C(N)c1ccc(CNC(=O)[C@@H]2CCCN2C(=O)CNS(=O)(=O)c2cc(Cl)cc(Cl)c2)cc1 target_or_system="human α-thrombin (Homo sapiens, UniProt P00734)" class=1.0
smiles_record=COc1ccc(S(=O)(=O)NCC(=O)N2CCC[C@H]2C(=O)NCc2ccc(C(=N)N)cc2)cc1OC target_or_system="human α-thrombin (Homo sapiens, UniProt P00734)" class=0.0
smiles_record=N=C(N)c1ccc(CNC(=O)[C@@H]2CCCN2C(=O)CNS(=O)(=O)c2ccc([N+](=O)[O-])cc2)cc1 target_or_system="human α-thrombin (Homo sapiens, UniProt P00734)" class=1.0
smiles_record=N#Cc1ccc(S(=O)(=O)NCC(=O)N2CCC[C@H]2C(=O)NCc2ccc(C(=N)N)cc2)cc1 target_or_system="human α-thrombin (Homo sapiens, UniProt P00734)" class=1.0
smiles_record=N=C(N)c1ccc(CNC(=O)[C@@H]2CCCN2C(=O)CNS(=O)(=O)CC2CCCCC2)cc1 target_or_system="human α-thrombin (Homo sapiens, UniProt P00734)" class=1.0
smiles_record=N=C(N)c1ccc(CNC(=O)[C@@H]2CCCN2C(=O)CNS(=O)(=O)c2cccc3ccccc23)cc1 target_or_system="human α-thrombin (Homo sapiens, UniProt P00734)" class=1.0
smiles_record=CC(C)(C)c1ccc(S(=O)(=O)NCC(=O)N2CCC[C@H]2C(=O)NCc2ccc(C(=N)N)cc2)cc1 target_or_system="human α-thrombin (Homo sapiens, UniProt P00734)" class=1.0
smiles_record=CC(C)c1cc(C(C)C)c(S(=O)(=O)NCC(=O)N2CCC[C@H]2C(=O)NCc2ccc(C(=N)N)cc2)c(C(C)C)c1 target_or_system="human α-thrombin (Homo sapiens, UniProt P00734)" class=1.0
smiles_record=CCc1ccc(S(=O)(=O)NCC(=O)N2CCC[C@H]2C(=O)NCc2ccc(C(=N)N)cc2)cc1 target_or_system="human α-thrombin (Homo sapiens, UniProt P00734)" class=0.0
